Test system: HCT-15 colon
experiment.notes: NCI-60 one-dose screen, 48 h (100 = growth as untreated, 0 = no growth, -100 = all killed)
reported.conditions: 10 µM
About 83,000 compounds went through this panel and 20% of them were active in at least one assay; those are over-represented in the sample as a whole.
Everything with growth lower than 70% is Not satisfied; everything else, including exactly 70%, is Satisfied.

- compound: "Cc1cc(SC#N)cc(C(C)(C)C)c1O"
  label.class: "Satisfied"
- compound: "C[C@]12CC[C@@H]3c4ccc(OS(=O)(=O)O)cc4CC[C@H]3[C@@H]1CC[C@@H]2NS(=O)(=O)c1ccc(-c2ccccc2)cc1"
  label.class: "Not satisfied"
- compound: "CCC(CC)n1c(C)cc(=O)n1C(CC)CC"
  label.class: "Satisfied"
- compound: "CCOC(=O)CN(c1sc(C)c(C)c1C(=O)OCC)S(=O)(=O)c1ccc(C)cc1"
  label.class: "Satisfied"
- compound: "CCCCCCCCCCCCCCCCCC[n+]1ccc2c(C)c3c(c(C)c2c1)c1cc(O)ccc1n3CC"
  label.class: "Not satisfied"
- compound: "CC1=CC2C(C(O)CC3(C)C2CC(C)C32OCOC23COCO3)C2(C)C/C(=C/O)C(=O)C=C12 (centres undefined)"
  label.class: "Not satisfied"
- compound: "CC(=O)Nc1cc2c(cc1Cl)Cc1cc(Cl)ccc1-2"
  label.class: "Satisfied"
- compound: "COc1ccc(-c2nn(-c3cccc(Cl)c3)cc2-c2c(C#N)c(=O)n3[nH]c(-c4ccc(C)cc4)nc3c2C#N)cc1"
  label.class: "Not satisfied"

###

Some compounds, each annotated with its measured growth.
Tested on: A549/ATCC NSCLC
experiment.notes: NCI-60 one-dose screen, 48 h (100 = growth as untreated, 0 = no growth, -100 = all killed)
reported.conditions: 10 µM
This is part of a sample that, as a whole, favours compounds with a hit. Of some 83,000 tested, about 20% had one in any assay.

- compound: "O=C(Nc1cccc2c1CCCC2)c1cc2ccccc2cc1O"
  target.or.system: "A549/ATCC NSCLC"
  growth [%]: 33.8
- compound: "CCn1c(CSc2nc3ccccc3c(=O)n2CCc2ccccc2)n[nH]c1=S"
  target.or.system: "A549/ATCC NSCLC"
  growth [%]: 84.6
- compound: "C/C=C/CSC(C)(C)C(=O)NC"
  target.or.system: "A549/ATCC NSCLC"
  growth [%]: 88.7
- compound: "Cc1cc(=O)n2nnc3cc(Cl)c(Cl)cc3n12"
  target.or.system: "A549/ATCC NSCLC"
  growth [%]: 104
- compound: "Cc1cc(=O)n2nnc3cc(C(F)(F)F)ccc3n12"
  target.or.system: "A549/ATCC NSCLC"
  growth [%]: 105
- compound: "COc1ccccc1-n1c(-c2csc(NC(C)=O)n2)n[nH]c1=S"
  target.or.system: "A549/ATCC NSCLC"
  growth [%]: 100
- compound: "O=C(CCl)Oc1ccc(OC(=O)CCl)cc1"
  target.or.system: "A549/ATCC NSCLC"
  growth [%]: 96
- compound: "COc1ccc2cc(-c3nc4ccccc4s3)c(Cl)nc2c1OC"
  target.or.system: "A549/ATCC NSCLC"
  growth [%]: 110
- compound: "COc1cccc(-c2nc3sccn3c2-c2cccc(S(C)(=O)=O)c2)c1"
  target.or.system: "A549/ATCC NSCLC"
  growth [%]: 102
- compound: "CCN(CC)CCCC(Nc1c2ccc(Cl)cc2nc2ccc(OC)cc12)c1ccc(F)cc1 (stereo unspecified)"
  target.or.system: "A549/ATCC NSCLC"
  growth [%]: 18.4
- compound: "COc1ccc(/C=C/c2nnc(/C=C/c3ccc(OC)c(OC)c3)o2)cc1OC"
  target.or.system: "A549/ATCC NSCLC"
  growth [%]: 32
